- target-system: α-synuclein (Homo sapiens (Human), UniProt P37840)
- experiment-description: Circular dichroism spectroscopy: inhibition of α-synuclein β-sheet formation
- Assay type: biochemical
- study-conditions: 24 h, read-out: Max % Inhibition
endpoint: Emax (%)
Kindly answer with a numeric value in %, unit omitted.

Previously resolved entries follow.
{"compound": "O=C(/C=C/c1ccc(O)c(O)c1)c1ccc(O)c(O)c1", "display-unit": "%", "Emax": 95}
{"compound": "Oc1ccc(-c2cn(-c3ccc(O)c(O)c3)nn2)cc1O", "display-unit": "%", "Emax": 100}
{"compound": "CC(=O)N1N=C(c2ccc(O)c(O)c2)CC1c1ccc(O)c(O)c1 (centres unmarked)", "display-unit": "%", "Emax": 100}

Item under review: O=C(/C=C/c1ccc(O)c(O)c1)c1cc(O)c(O)cc1Br . Reported Emax?
100

Item under review: Oc1ccc(-c2cnc(-c3ccc(O)c(O)c3)o2)cc1O . Reported Emax?
92

---

- target-system: α-synuclein fibrils (Homo sapiens (Human), UniProt P37840)
- experiment-description: biochemical
- study-conditions: 48 h, read-out: Max % Decrease
Listed compounds paired with reported Emax
Kindly answer with a numeric value in %, unit omitted.

Previously resolved entries follow.
{"smiles": "O=[N+]([O-])c1cc(-c2ccc(O)c(O)c2)ccc1-c1ccc(O)c(O)c1", "display-unit": "%", "Emax": 54}
{"smiles": "Oc1ccc(Cc2cc(O)c(O)cc2I)cc1O", "display-unit": "%", "Emax": 62}
{"smiles": "Oc1ccc(-c2nnc(-c3ccc(O)c(O)c3)o2)cc1O", "display-unit": "%", "Emax": 25}

// next item, Emax requested
Item under review: Oc1ccc(Cc2cc(O)c(O)cc2O)cc1O . Reported Emax?
40
